Quick reference for Tumor AUC among some molecules
System: PC3-PIP tumor model
Parameters: species or system mice
assay-conditions: mouse, in vivo
Numbered stars: 1 amine (or outer) side, 2 acyl side, 3 side chain; on linkers, the order of the positions; unused ones are H or OH. Bridge positions count the residues as written; N and C are the ends. Square brackets hold non-standard residues; d marks the D form. Peptide text beside a SMILES is read from it. * marks the point of attachment. DOTA = O=C(O)CN1CCN(CC(=O)O)CCN(CC(=O)*)CCN(CC(=O)O)CC1; Phe(4-Cl) = N[C@@H](Cc1ccc(Cl)cc1)C(=O)O; Arg(Me) = CNC(=N)NCCC[C@H](N)C(=O)O; Ethylenediamine = C(CN[*:2])N[*:1]; X1 = O=C(CC1CCN([*:1])CC1)[*:2]; Lys(Me) = CNCCCC[C@H](N)C(=O)O; Tle = CC(C)(C)[C@H](N)C(=O)O; 4Amb = NCc1ccc(C(=O)O)cc1; Aib = CC(C)(N)C(=O)O; βAla = NCCC(=O)O
Write the answer as a number in % ID/g*h, unit excluded.

A selection of reference data follows.
C[C@@H](O)[C@H](NC(=O)CC1CCN(C(=O)CN2CCN(CC(=O)O)CCN(CC(=O)O)CCN(CC(=O)O)CC2)CC1)C(=O)NC(C)(C)C(=O)N[C@@H](Cc1ccc(Cl)cc1)C(=O)N[C@H]1CSSC[C@@H](C(=O)N[C@H](C(=O)NCCN)C(C)(C)C)NC(=O)[C@H](CC(N)=O)NC(=O)C(C)(C)NC(=O)[C@H](CCCNC(=N)N)NC(=O)[C@H](CCCCN)NC1=O [PSM-0384] ({DOTA}-[X1]T[Aib][Phe(4-Cl)]CKR[Aib]NC[Tle]-Ethylenediamine; disulfide 5-10) ... 220
C[C@@H](O)[C@H](NC(=O)[C@@H](NC(=O)[C@@H]1CSSC[C@H](NC(=O)[C@H](Cc2ccc(Cl)cc2)NC(=O)C(C)(C)NC(=O)c2ccc(CNC(=O)CN3CCN(CC(=O)O)CCN(CC(=O)O)CCN(CC(=O)O)CC3)cc2)C(=O)N[C@@H](CCCCN)C(=O)N[C@@H](CCCNC(=N)N)C(=O)NC(C)(C)C(=O)N[C@@H](CC(N)=O)C(=O)N1)C(C)(C)C)C(N)=O [PSM-0283] ({DOTA-4Amb}-[Aib][Phe(4-Cl)]CKR[Aib]NC[Tle]T-NH2; disulfide 3-8) ... 200
CNCCCC[C@@H]1NC(=O)[C@@H](NC(=O)[C@H](Cc2ccc(Cl)cc2)NC(=O)C(C)(C)NC(C)=O)CSSC[C@@H](C(=O)N[C@H](C(=O)NCCNC(=O)CN2CCN(CC(=O)O)CCN(CC(=O)O)CCN(CC(=O)O)CC2)C(C)(C)C)NC(=O)[C@H](CC(N)=O)NC(=O)C(C)(C)NC(=O)[C@H](CCCNC(=N)NC)NC1=O [PSM-0481] (Ac-[Aib][Phe(4-Cl)]C[Lys(Me)][Arg(Me)][Aib]NC[Tle]-{Ethylenediamine-DOTA}; disulfide 3-8) ... 130

Input: # value lookup — system PC3-PIP tumor model, readout Tumor AUC, item C[C@@H](O)[C@H](NC(=O)CN1CCN(CC(=O)O)CCN(CC(=O)O)CCN(CC(=O)O)CC1)C(=O)NC(C)(C)C(=O)N[C@@H](Cc1ccccc1)C(=O)N[C@H]1CSSC[C@@H](C(=O)N[C@H](C(=O)NCCN)C(C)(C)C)NC(=O)[C@H](CC(N)=O)NC(=O)C(C)(C)NC(=O)[C@H](CCCNC(=N)N)NC(=O)[C@H](CCCCN)NC1=O [PSM-0199] ({DOTA}-T[Aib]FCKR[Aib]NC[Tle]-Ethylenediamine; disulfide 4-9)
Output: 170

Input: Item C[C@@H](O)[C@H](NC(=O)CC1CCN(C(=O)CN2CCN(CC(=O)O)CCN(CC(=O)O)CCN(CC(=O)O)CC2)CC1)C(=O)NC(C)(C)C(=O)N[C@@H](Cc1ccc(Cl)cc1)C(=O)N[C@H]1CSSC[C@@H](C(=O)N[C@H](C(=O)NCCC(N)=O)C(C)(C)C)NC(=O)[C@H](CC(N)=O)NC(=O)C(C)(C)NC(=O)[C@H](CCCNC(=N)N)NC(=O)[C@H](CCCCN)NC1=O [PSM-0467] ({DOTA}-[X1]T[Aib][Phe(4-Cl)]CKR[Aib]NC[Tle][βAla]-NH2; disulfide 5-10) with PC3-PIP tumor model - Tumor AUC?
Output: 280

* * *

target-or-test-system: Fc-fusion protein of human PSMA (hPSMA-Fc) (Homo sapiens, UniProt Q04609)
Construct: purchased Acro Biosystems PSA-H5264
Sequence (Q04609 44-750 limits assumed): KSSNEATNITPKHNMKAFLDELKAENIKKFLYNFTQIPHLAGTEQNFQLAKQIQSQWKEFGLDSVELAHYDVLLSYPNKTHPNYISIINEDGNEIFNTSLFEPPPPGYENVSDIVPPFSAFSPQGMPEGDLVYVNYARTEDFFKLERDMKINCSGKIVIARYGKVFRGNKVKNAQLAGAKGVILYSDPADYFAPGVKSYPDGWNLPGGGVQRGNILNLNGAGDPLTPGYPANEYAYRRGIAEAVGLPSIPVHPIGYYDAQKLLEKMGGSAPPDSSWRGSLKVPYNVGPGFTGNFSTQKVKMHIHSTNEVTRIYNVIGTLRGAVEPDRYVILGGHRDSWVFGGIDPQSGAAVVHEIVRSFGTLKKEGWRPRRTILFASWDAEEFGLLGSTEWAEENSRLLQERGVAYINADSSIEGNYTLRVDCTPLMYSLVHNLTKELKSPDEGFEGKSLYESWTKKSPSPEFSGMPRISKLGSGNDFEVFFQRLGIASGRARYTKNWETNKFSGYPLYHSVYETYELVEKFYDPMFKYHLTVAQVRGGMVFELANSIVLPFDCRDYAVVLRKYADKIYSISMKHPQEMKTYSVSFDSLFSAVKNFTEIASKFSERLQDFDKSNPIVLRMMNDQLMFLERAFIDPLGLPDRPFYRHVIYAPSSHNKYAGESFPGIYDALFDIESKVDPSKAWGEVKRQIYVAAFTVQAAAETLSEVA
assay-method-text: Surface plasmon resonance assay (Biacore T200, single cycle kinetic)
Assay type: binding
assay-conditions: SPR, hPSMA-Fc, single cycle kinetic, 25° C.; category; read-out: pKD CAT (converted)
Numbered stars: 1 amine (or outer) side, 2 acyl side, 3 side chain; on linkers, the order of the positions; unused ones are H or OH. Bridge positions count the residues as written; N and C are the ends. Square brackets hold non-standard residues; d marks the D form. Peptide text beside a SMILES is read from it. * marks the point of attachment. DOTA = O=C(O)CN1CCN(CC(=O)O)CCN(CC(=O)*)CCN(CC(=O)O)CC1; Phe(3-Cl) = N[C@@H](Cc1cccc(Cl)c1)C(=O)O; Phe(4-Cl) = N[C@@H](Cc1ccc(Cl)cc1)C(=O)O; Arg(Me) = CNC(=N)NCCC[C@H](N)C(=O)O; Lys(iPr) = CC(C)NCCCC[C@H](N)C(=O)O; X1 = O=C(CC1CCN([*:1])CC1)[*:2]; Cit = NC(=O)NCCC[C@H](N)C(=O)O; Tle = CC(C)(C)[C@H](N)C(=O)O; Aib = CC(C)(N)C(=O)O; CO = O=C([*:1])[*:2]; NHBu = CCCCN*
experimental-endpoint: Kd

CNC(=N)NCCC[C@@H]1NC(=O)[C@H](CCCCNC(C)C)NC(=O)[C@@H](NC(=O)[C@H](Cc2ccc(Cl)cc2)NC(=O)C(C)(C)NC(=O)[C@@H](NC(=O)CC2CCN(C(=O)CN3CCN(CC(=O)O)CCN(CC(=O)O)CCN(CC(=O)O)CC3)CC2)[C@@H](C)O)CSSC[C@@H](C(=O)N[C@H](C(=O)N[C@H](C(N)=O)[C@@H](C)O)C(C)(C)C)NC(=O)[C@H](CC(N)=O)NC(=O)C(C)(C)NC1=O [PSM-0244] ({DOTA}-[X1]T[Aib][Phe(4-Cl)]C[Lys(iPr)][Arg(Me)][Aib]NC[Tle]T-NH2; disulfide 5-10) ... < 12.6 nM

// switching to the query compound
Input: Param item = CCCCNC(=O)N[C@H](C(=O)NC(C)(C)C(=O)N[C@@H](Cc1cccc(Cl)c1)C(=O)N[C@H]1CSSC[C@@H](C(=O)N[C@H](C(=O)N[C@H](C(=O)N2CCC(CC(=O)N[C@H](CCCCNC(=O)CN3CCN(CC(=O)O)CCN(CC(=O)O)CCN(CC(=O)O)CC3)C(N)=O)CC2)[C@@H](C)O)C(C)(C)C)NC(=O)[C@H](CC(N)=O)NC(=O)C(C)(C)NC(=O)[C@H](CCCNC(N)=O)NC(=O)[C@H](CCCCN)NC1=O)[C@@H](C)O [PSM-0207] ({NHBu-CO}-T[Aib][Phe(3-Cl)]CK[Cit][Aib]NC[Tle]T[X1][dK](DOTA)-NH2; disulfide 4-9) ; retrieve measured Kd.
Output: 12.6 to 126 nM
